assayed system: T1, Peptide-6 (cysteine pairing not given here; also: biotinylated, site not given here)
T1 peptide: IDFCLIYNWPVCDT
method description: ELISA, Fab on captured biotin-peptide
Where no end group is shown, it is not given here.
endpoint label: EC50 (nM)
# value in nM; strip the unit string

TBD-21 (HC F108A) (Fab, V domains shown, Fab; also called HC F108A mutant) VH: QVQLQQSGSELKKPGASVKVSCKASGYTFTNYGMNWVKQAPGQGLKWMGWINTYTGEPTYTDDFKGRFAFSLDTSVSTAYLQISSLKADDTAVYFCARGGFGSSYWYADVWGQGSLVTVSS VL: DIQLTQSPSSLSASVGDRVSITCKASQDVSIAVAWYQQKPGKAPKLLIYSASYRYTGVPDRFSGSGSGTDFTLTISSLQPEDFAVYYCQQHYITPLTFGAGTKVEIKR: 24.9

Task item: Please look at this binder and report its EC50: TBD-22 (HC D109A) (Fab, V domains shown, Fab; also called HC D109A mutant) VH: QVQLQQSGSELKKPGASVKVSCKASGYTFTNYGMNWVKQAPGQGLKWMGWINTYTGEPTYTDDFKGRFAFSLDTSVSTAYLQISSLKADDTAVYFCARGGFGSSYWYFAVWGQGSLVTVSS VL: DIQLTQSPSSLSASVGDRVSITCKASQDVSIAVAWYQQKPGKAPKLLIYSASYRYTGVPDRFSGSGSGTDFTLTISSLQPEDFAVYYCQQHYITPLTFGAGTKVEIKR
Reply: 1.4

Task item: Please look at this binder and report its EC50: TBD-17 (HC S104A) (Fab, V domains shown, Fab; also called HC S104A mutant) VH: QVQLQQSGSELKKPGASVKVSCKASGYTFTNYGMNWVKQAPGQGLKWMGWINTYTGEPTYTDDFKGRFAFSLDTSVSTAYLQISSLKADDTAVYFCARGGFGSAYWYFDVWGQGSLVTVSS VL: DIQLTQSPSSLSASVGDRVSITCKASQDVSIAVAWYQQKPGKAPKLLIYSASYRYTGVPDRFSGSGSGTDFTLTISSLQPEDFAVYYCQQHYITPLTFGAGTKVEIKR
Reply: 10.1

// provenance: patent US20230357429A1
